Item-by-item account of melting point

Worked cases, answers included:
[
  {
    "molecule": "CCCc1nc(C(C)C)c(C(=O)OCc2ccc(-c3ccccc3C(=O)C(=O)O)cc2)[nH]1",
    "quantity-kind": "melting point",
    "experimental-result": "177 to 178 °C"
  },
  {
    "molecule": "COc1ccc(-c2nc3cc(F)ccc3s2)cc1OC(=O)c1ccccc1Cl",
    "quantity-kind": "melting point",
    "experimental-result": "190 °C"
  },
  {
    "molecule": "COc1cc(-c2nc(C(C)C)no2)cc2oc(=O)c(C)c(C)c12",
    "quantity-kind": "melting point",
    "experimental-result": "142 °C"
  },
  {
    "molecule": "Cc1cncc2cc(S(N)(=O)=O)oc12",
    "quantity-kind": "melting point",
    "experimental-result": "180 to 182 °C"
  },
  {
    "molecule": "CCCOc1c(-c2cc(C=CC(=O)O)ccc2OC)cc(C(C)(C)C)cc1C(C)(C)C",
    "quantity-kind": "melting point",
    "experimental-result": "107 to 109 °C"
  }
]

Next molecule, melting point to be filled in.
Given CCOCc1nc2c(N)nc3c(c2n1CC(C)(C)OCCS(C)(=O)=O)CCCC3 , state its recorded melting point.
150 to 153 °C

* * *

# key: entry, value: melting point

The following compounds have reported results that may help.
[
  {
    "compound": "CN(C)C1CCC(Nc2nc3cc4c(cc3nc2-c2ccccn2)CCC4)CC1 (stereo not given)",
    "melting point": "158 to 161 °C"
  },
  {
    "compound": "CCc1cc(C2(c3cccc(-c4cccnc4F)c3)N=C(N)N3CCCN=C32)cc(CC)n1 (stereo not given)",
    "melting point": "174 to 176 °C"
  },
  {
    "compound": "Cc1ccc(-c2ccc3c(c2)C=C(C(=O)Nc2ccc(CNC4CCCCC4)cc2)CCO3)cc1",
    "melting point": "183 to 184 °C"
  },
  {
    "compound": "CN1c2ccccc2C(C)(C)C1CC#N (stereo not given)",
    "melting point": "74 to 76 °C"
  },
  {
    "compound": "COc1ccc(CCNC[C@H](O)COc2ccc(-c3nc(C(C)=O)c[nH]3)cc2)cc1OC",
    "melting point": "138 to 142 °C"
  },
  {
    "compound": "Cc1c(Nc2ncc(Br)cc2C(=O)O)cccc1C(F)(F)F",
    "melting point": "222 to 224 °C"
  }
]

// below: melting point requested for another compound
Which melting point is reported for this compound? O=c1[nH]c(COc2ccc(Cl)cc2)nc2nccnc12
267 to 269 °C

* * *

# melting point per record follows

Guide cases for melting point, answers given:
[
  {
    "compound": "N[C@@H](C/C(=C\\C1CCCC1)C(=O)O)C(=O)O",
    "melting point": "173 to 175 °C"
  },
  {
    "compound": "Cc1ccc2c(c1)[nH]c(=O)n2CCCO",
    "melting point": "114 °C"
  }
]

Returns the measured melting point for the input compound. Input: N#Cc1c(-c2cccs2)[nH]c(C(F)(F)F)c1Cl
221 to 223 °C

Quick one: melting point for Fc1ccc2nc(Cl)c(Cl)nc2c1 ?
148 to 152 °C

Find the recorded melting point belonging to Cc1cc(O)nn1C(=O)Nc1ccccc1 and report it.
232 to 234 °C

Which melting point is reported for this compound? Cc1onc(C(=O)c2ccccc2)c1NC(=O)CCl
86 to 88 °C

Could you share which melting point value was measured for CCN(CC)C(=O)COC(=O)c1cccc(NC(=O)C(CS)Cc2ccccc2)c1 (configuration not stated) ?
160 to 163 °C

Give the measured melting point of CCOC(=O)C1=C(C)NC(c2cscn2)=NC1c1cccc(C)c1 (configuration not stated) .
133 to 134 °C

Entry COc1ccc2c(c1)C(=O)C(Cc1cccc(N)c1)C(C)O2 (configuration not stated) : reported melting point = ?
110 to 112 °C

Quick one: melting point of CCOC(=O)c1cn(-c2cccc(COCc3ccccn3)c2)cn1 ?
76.7 to 78.8 °C

* * *

quantity-kind: melting point

[
  {
    "compound": "CC(C)Cn1cnc2cnc3ccc(OCc4ccccc4)cc3c21",
    "melting point": "129 to 133 °C"
  },
  {
    "compound": "NC[C@@H]1C[C@@H](CC(=O)O)C(=O)N1CCCc1ccccc1",
    "melting point": "188 to 192 °C"
  }
]

Any idea what melting point was measured for Nc1cc(C[C@H](Nc2nc3ccc(Cl)cc3cc2C(=O)O)C(=O)O)ccc1Oc1nc2ccc(Cl)cc2cc1C(=O)O ?
> 250 °C

* * *

// reported melting point for each item listed

Reference set, count: 2
[
  {
    "molecule": "CC(C)N(C[C@H](O)[C@H](Cc1ccccc1)NC(=O)c1ccccc1NC(=O)OCc1ccccn1)NC(=O)OC(C)(C)C",
    "melting point": "155 to 157 °C"
  },
  {
    "molecule": "COc1ccc2c(c1)C(=O)C(Cc1ccccc1)CS2 (stereo not given)",
    "melting point": "66 to 68 °C"
  }
]

melting point for Cn1ncnc1COc1nc2c(cc1C(C)(C)C)nnn2-c1ccccc1 ?
165 to 167 °C

Name the reported melting point value associated with the molecule CCOC(=O)c1csc(-c2ccccc2[N+](=O)[O-])n1
82 to 84 °C

Value lookup for melting point; key = CCCc1nn(C)c2c(=O)[nH]c(Cc3ccccc3NS(=O)(=O)CCCN(C)C)nc12
202 to 204 °C

# input molecule: Cc1ccc(Cl)cc1N1CN(Cc2ccccc2)CN(Cc2ccccc2)C1=S ; wanted: its melting point
202 to 203 °C

* * *

Listed here: items and their measured melting point.

Completed entries (count: 5):
[
  {
    "molecule": "CCOC(=O)c1cnc(Nc2ccccc2OC)[nH]c1=O",
    "experimental-result": "217 to 219 °C"
  },
  {
    "molecule": "COc1ccc(CCNS(=O)(=O)c2ccc([N+](=O)[O-])cc2)cc1",
    "experimental-result": "92 to 93 °C"
  },
  {
    "molecule": "COc1cc(I)c(C(=O)Oc2ccccc2COC(=O)c2ccc3c(c2I)OCO3)cc1OC",
    "experimental-result": "128 to 130 °C"
  },
  {
    "molecule": "C=C1NC(Nc2ccccc2)=C(C(=O)OCC)C(NN)=C1C#N",
    "experimental-result": "174 to 176 °C"
  },
  {
    "molecule": "CCCc1c(OCc2cccc(OCc3ccc4ccccc4n3)c2)ccc2c(=O)cc(C(=O)O)oc12",
    "experimental-result": "218 to 222 °C"
  }
]

Please report the recorded melting point for COc1ccccc1C1C(=O)Nc2cc(C)c(Cl)cc21 (centres undefined) .
193 °C

Given the entry CC(C)(C)OC(=O)CC[C@H](NC(=O)c1ccc(NCc2cnc(N)c(C#N)n2)cc1)C(=O)OC(C)(C)C , report its measured melting point.
71 to 78 °C

Report melting point for CCOC(=O)c1ncc2[nH]c3ccc(Br)cc3c2c1C please.
231 to 232 °C

I have this molecule here, COc1ccc2c(c1)c(CN(O)C(=O)CCC(=O)O)c(C)n2C(=O)c1ccc(Cl)cc1 , and I need its recorded melting point.
134 to 136 °C

* * *

quantity-kind: melting point

melting point for COCCOc1ccc(C=O)c(OCc2ccccc2)c1 ?
67.5 to 68 °C

Item CCOC(=O)c1ccc(NC(=O)C=C(c2ccccc2)c2ccc(C)cc2)cc1 has what recorded melting point?
122 to 124 °C

I would be grateful if you could share the reported melting point for COC1=C(OC)C(=O)C(CN2CCN(C(=S)SC)CC2)=C(C)C1=O .
115 to 116 °C

Bench note: what melting point did COc1ccc(CN(C)CCCc2ccc(NC(=O)c3cccc4c(=O)cc(-c5ccccc5)[nH]c34)cc2)cc1OC show?
180 °C

Sample COc1ccc2cccc(C(CO)CNC(=O)CF)c2c1 (stereo not given) — what was its melting point?
49 to 51 °C

Tell me the measured melting point of CC(C)(C)C(O)C(Cn1cncn1)Oc1ccc(Cl)cc1 (stereo not given) , please.
103 °C

Which measured melting point value corresponds to CC1=C(C(O)c2ccc3c(c2)CCN(C(N)=O)C3)C(C)(C)CCC1 (stereo not given) ?
88.3 to 89 °C

Which measured melting point value corresponds to O=C(CCCCNCCOc1cccc2cccnc12)NC1CCCCC1 ?
113 to 119 °C

If you can, please state the reported melting point value of CC(=O)c1cccc(NC(=O)C(C)(C)C)c1 .
130 to 133 °C

What measured melting point goes with O=C1CCC(N2C(=O)c3cccc(NCc4cccnc4)c3C2=O)C(=O)N1 (stereo not given) ?
231 to 233 °C
